# assay_explanation: Inhibition of HCV 1a isolate H77 NS5B polymerase by Microbeta scintillation counter
# Set-up: species or system Hepatitis C virus subtype 1a
For each record, check the reported IC50: if it is below 100 nM write 1 (yes), else write 0 (no).

### Prompt Given CS(=O)(=O)Nc1ccc2c(c1)S(=O)(=O)NC(C1=C(O)[C@@H]3CCC[C@@H]3N(Cc3ccc(F)cc3)C1=O)=N2 , is recorded IC50 strictly lower than 100 nM?
### Response 1 (yes)

### Prompt Given Cc1cccc(CN2C(=O)C(C3=NS(=O)(=O)c4cc(NS(C)(=O)=O)ccc4N3)=C(O)[C@H]3CCC[C@H]32)c1 , is recorded IC50 strictly lower than 100 nM?
### Response 1 (yes)

### Prompt Given CS(=O)(=O)Nc1ccc2c(c1)S(=O)(=O)N=C(C1=C(O)C3CCCC3N(Cc3ccccn3)C1=O)N2 (racemic) , is recorded IC50 strictly lower than 100 nM?
### Response 0 (no)

Next:
### Prompt Given CC(C)(C)CCN1C(=O)C(C2=NS(=O)(=O)c3cc(NS(C)(=O)=O)ccc3N2)=C(O)C2CCCC21 (racemic) , is recorded IC50 strictly lower than 100 nM?
### Response 1 (yes)

### Prompt Given CS(=O)(=O)Nc1ccc2c(c1)S(=O)(=O)N=C(C1=C(O)C3CCCC3N(CCC3CC3)C1=O)N2 (racemic) , is recorded IC50 strictly lower than 100 nM?
### Response 1 (yes)

### Prompt Given CS(=O)(=O)Nc1ccc2c(c1)S(=O)(=O)N=C(C1=C(O)C3CCCCCCC3N(Cc3ccc(F)cc3)C1=O)N2 (racemic) , is recorded IC50 strictly lower than 100 nM?
### Response 0 (no)
